# system.tested: LIMK2 (Homo sapiens (Human), UniProt P53671)
# Sequence (P53671 whole entry): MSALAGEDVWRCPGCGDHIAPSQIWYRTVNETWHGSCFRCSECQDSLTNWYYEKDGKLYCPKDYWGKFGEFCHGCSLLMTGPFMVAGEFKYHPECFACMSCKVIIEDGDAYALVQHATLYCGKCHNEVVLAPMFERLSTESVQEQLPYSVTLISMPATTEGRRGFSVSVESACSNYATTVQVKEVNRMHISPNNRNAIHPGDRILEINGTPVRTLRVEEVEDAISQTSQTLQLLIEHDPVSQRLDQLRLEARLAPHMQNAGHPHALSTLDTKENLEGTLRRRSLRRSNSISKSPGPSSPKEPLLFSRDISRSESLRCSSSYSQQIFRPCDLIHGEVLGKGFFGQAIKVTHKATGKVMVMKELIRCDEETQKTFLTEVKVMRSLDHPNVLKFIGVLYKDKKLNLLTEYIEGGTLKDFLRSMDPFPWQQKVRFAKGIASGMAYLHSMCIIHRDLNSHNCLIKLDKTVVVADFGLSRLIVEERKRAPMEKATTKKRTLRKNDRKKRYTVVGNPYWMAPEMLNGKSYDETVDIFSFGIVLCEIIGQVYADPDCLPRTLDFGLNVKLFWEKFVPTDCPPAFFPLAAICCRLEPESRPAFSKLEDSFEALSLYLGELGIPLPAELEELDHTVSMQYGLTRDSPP
# measurement.description: Lanthascreen Eu binding assay (TR-FRET), inhibition of LIMK2
# study.conditions: Lanthascreen Eu binding assay
pKi: −log10 of the molar value.
experimental.endpoint: pKi

For orientation, consider the following solved cases.
compound: Cc1c[nH]c2ncnc(C3=CCN(C(=O)Nc4cccc(Oc5cccc(OC(=O)N(C)C)c5)c4)CC3)c12 [Compound 216]
system.tested: LIMK2 (Homo sapiens (Human), UniProt P53671)
pKi: 7.84
//
compound: Cc1c[nH]c2ncnc(C3=CCN(C(=O)Nc4cccc(Oc5cccc(O)c5)c4)CC3)c12 [Compound 213]
system.tested: LIMK2 (Homo sapiens (Human), UniProt P53671)
pKi: 7.79

1: CC(C)(C)OC(=O)NCCCOc1cccc(-c2cccc(NC(=O)N3CC=C(c4ncnc5[nH]c6c(c45)CCC6)CC3)c2)c1 [Compound 164]
2: CN(C)C(=O)Nc1cccc(NC(=O)N2CC=C(c3ncnc4[nH]c5c(c34)CCC5)CC2)c1 [Compound 131]
Exercise: Which has the smaller recorded pKi, 1 or 2 ? // output: label of the selected item
Key: 1

I: Cc1c[nH]c2ncnc(C3=CCN(C(=O)Nc4cccc(OCC5CCN(C)CC5)c4)CC3)c12 [Compound 195]
II: COCOCc1cccc(NC(=O)N2CC=C(c3ncnc4[nH]c5c(c34)CCC5)CC2)c1 [Compound 135]
III: Cc1c[nH]c2ncnc(C3=CCN(C(=O)Nc4cccc(OCCN5CCN(C)CC5)c4)CC3)c12 [Compound 184]
IV: Cc1c[nH]c2ncnc(C3=CCN(C(=O)Nc4cccc(Oc5ccccc5)c4)CC3)c12 [Compound 15]
Exercise: Sort the compounds on pKi; start with the lowest figure. Put the labels in the order asked and list them.
Key: III, I, II, IV

I: Cc1c[nH]c2ncnc(C3=CCN(C(=O)Nc4cccc(-c5cccc(OCCCNC(=O)OC(C)(C)C)c5)c4)CC3)c12 [Compound 166]
II: CCc1cccc(NC(=O)N2CC=C(c3ncnc4[nH]c5c(c34)CCC5)CC2)c1 [Compound 129]
Exercise: Smaller pKi value? Options are I and II Select an item and report its label.
Key: I
(I: 6.91, II: 7.26)

Ref: patent US20230312576A1
